Tested on: H9c2
Assay: Antioxidant activity in rat H9c2 cells assessed as protection against H2O2-induced hypoxic injury by measuring cell viability at 10 uM preincubated for 4 hrs followed by H2O2 stimulation for 1 hr by MTT assay relative to control
Format: functional
Quick rule: Activity of at least 60% means yes (1), below that means no (0).

Check out these entries, answers already filled in.
COc1cc(C(=O)OCCOCCNC(=N)N)cc(OC)c1O = yes (1)
N=C(N)NCCCCOC(=O)c1ccncc1 = no (0)
Cc1cccc(C(=O)OCCCCNC(=N)N)c1 = yes (1)

Problem: Does the reported Activity for COc1cc(C(=O)OCCCCNC(=N)N)cc(OC)c1O fall at or above the 60% mark?
Solution: yes (1)

Problem: Does the reported Activity for N=C(N)NCCCCOC(=O)C12CC3CC(CC(C3)C1)C2 fall at or above the 60% mark?
Solution: no (0)

Problem: Does the reported Activity for COc1cc(C(=O)OCCCCNC(=N)N)cc(OC)c1OC(C)=O fall at or above the 60% mark?
Solution: no (0)

Problem: Does the reported Activity for CCN(CC)CCOC(=O)c1cc(OC)c(O)c(OC)c1 fall at or above the 60% mark?
Solution: yes (1)

Problem: Does the reported Activity for N=C(N)NCCCCOC(=O)c1ccc(C(F)(F)F)cc1 fall at or above the 60% mark?
Solution: no (0)
